# target or system: Muscarinic acetylcholine receptor (Homo sapiens) (UniProt P20309+P08173+P11229+P08172+P08912);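 note: in vivo guinea pig assay: antimuscarinic effect measured as reduced salivation after carbachol stimulation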
# settings: Cavia porcellus
# Description: In vivo antimuscarinic activity to decrease carbachol-stimulated salivation in guinea pig
readout kind: log10 of ID50 (log10 of the value in mg/kg)
For clarity, the numbers are log10 values of ID50 expressed in mg/kg.

The compound identified as Cc1ccc(CN2CCN(CC(=O)C(O)(c3ccccc3)C3CCC3)CC2)cc1 (stereo unspecified) registered its log10 of ID50 at 0.92

Per the records, this compound ( COc1ccc(CN2CCN(CC(=O)C(O)(c3ccccc3)C3CCC3)CC2)cc1 (stereo unspecified) ) has log10 of ID50 equal to 1.03

Briefly, log10 of ID50 measured for O=C(CN1CCN(C/C=C\c2ccccc2)CC1)C(O)(c1ccccc1)C1CCC1 (stereo unspecified) : 0.08

log10 of ID50 recorded for this compound, N#CCN1CCN(CC(=O)C(O)(c2ccccc2)C2CCC2)CC1 (stereo unspecified) , is 1.55

# compound CC(C)=CCN1CCN(CC(=O)C(O)(c2ccccc2)C2CCC2)CC1 (stereo unspecified) ; its log10 of ID50 = 0.69

Record CCCN1CCN(CC(=O)C(O)(c2ccccc2)C2CCC2)CC1 (stereo unspecified) , field log10 of ID50: 1.49

In plain terms, O=C(CN1CCN(CCO)CC1)C(O)(c1ccccc1)C1CCC1 (stereo unspecified) has a documented log10 of ID50 of 0.69

Form: compound = O=C(CN1CCN(Cc2cccc(Cl)c2)CC1)C(O)(c1ccccc1)C1CCC1 (stereo unspecified) ; log10 of ID50 = 0.92

Note to self: log10 of ID50 recorded for C=CCN1CCN(CC(=O)C(O)(c2ccccc2)C2CCCCC2)CC1 (stereo unspecified) was 1.32

Measured log10 of ID50, O=C(CN1CCN(Cc2ccccc2)CC1)C(O)(c1ccccc1)C1CC1 (stereo unspecified) : 1.00
